Data provenance: patent US20210253725A1

testedSystem: T1, CD27 expressed on the cell surface of HT1080_CD27 cells (human, UniProt P26842 20-260); also: test concentration or dose not given here
T1 sequence (looked up): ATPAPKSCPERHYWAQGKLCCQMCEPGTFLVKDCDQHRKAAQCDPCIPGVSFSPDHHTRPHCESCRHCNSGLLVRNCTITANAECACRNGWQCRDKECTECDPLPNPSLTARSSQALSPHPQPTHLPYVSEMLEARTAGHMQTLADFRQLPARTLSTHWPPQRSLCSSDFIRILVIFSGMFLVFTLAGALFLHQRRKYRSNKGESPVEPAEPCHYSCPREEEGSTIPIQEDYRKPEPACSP
testProtocol: cell-based or functional assay
measurementKind: Functional assay IL-8 (abs. corr.)
Answers are plain numbers, in abs. corr..

binder: P018.S.09.A.F05 (antibody, V domains shown, V regions on human Ig constant parts; also called AB27_157) VH: QEQLEESGGDLVKPGASLTLTCTASGFSFSSNYCMCWVRQAPGKGLEWIACICAGASGATYYASWAKGRFTVSKTSSTTVTLQMTSLTGADTATYFCARYDNSGWGDFKLWGPGTLVTVSS VL: DIVMTQTPASVSEPVGGTVTINCQASQNIGTYLAWYQQKPGQRPKLLIYAASYLASGVPSRFKGSGSGTEVALTISDLESADAATYYCQNTYYDSPVVGGAFGGGTEVVVK
unitSpec: abs. corr.
Functional assay IL-8: 0.158

binder: P018.S.05.A.D06 (antibody, V domains shown, V regions on human Ig constant parts; also called AB27_88) VH: QSVEESGGRLVTPGTPLTLTCTVSGFSLSSYWMSWVRQAPGKGLEWIGFIYGGSGDKYYASWAKGRFAISKTSTTVDLKITSPTTEDTATYFCARGGDGDGTYSSLWGQGTLVTVSS VL: AQVLTQTPSPVSAAVGGTVTISCQSSESVAGKNLAWYQQKPGQPPKVLIYGTSNLASRVPSRFRGSGSGTQFTLTISDLESDDAATYYCQGYYSGGIYGFGGGTEVVVE
unitSpec: abs. corr.
Functional assay IL-8: 0.338

# input for lookup
What Functional assay IL-8 value was documented for this binder, P018.S.05.A.A06 (antibody, V domains shown, V regions on human Ig constant parts; also called AB27_82) VH: QSLEESGGRLVTPGTPLTLTCTVSGIDLNNNAMSWVRQAPGEGLEWIGIISTAGTTTYASWTKGRFTISKTSTTVDLKITSPTTEDTATYFCARAAYFSYGYINLWGQGTLVTVSS VL: DIVMTQTPASVEAAVGGTVTIKCQASQNIGNALAWYQQKSGQPPKLLIYSASTLASGVPSRFKGSGSGTEFTLTISDLESADATTYFCQSYVYSDGNVFGGGTEVVVK ?
0.324
